hERG current change (%, negative = inhibition) at 10uM for assorted compounds
# assay.system: human ether-à-go-go-related gene (hERG) potassium channel (human, UniProt Q12809);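 further: peak tail current of the secondary pulse compared with the same well before compound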
# Sequence (Q12809 whole entry, looked up): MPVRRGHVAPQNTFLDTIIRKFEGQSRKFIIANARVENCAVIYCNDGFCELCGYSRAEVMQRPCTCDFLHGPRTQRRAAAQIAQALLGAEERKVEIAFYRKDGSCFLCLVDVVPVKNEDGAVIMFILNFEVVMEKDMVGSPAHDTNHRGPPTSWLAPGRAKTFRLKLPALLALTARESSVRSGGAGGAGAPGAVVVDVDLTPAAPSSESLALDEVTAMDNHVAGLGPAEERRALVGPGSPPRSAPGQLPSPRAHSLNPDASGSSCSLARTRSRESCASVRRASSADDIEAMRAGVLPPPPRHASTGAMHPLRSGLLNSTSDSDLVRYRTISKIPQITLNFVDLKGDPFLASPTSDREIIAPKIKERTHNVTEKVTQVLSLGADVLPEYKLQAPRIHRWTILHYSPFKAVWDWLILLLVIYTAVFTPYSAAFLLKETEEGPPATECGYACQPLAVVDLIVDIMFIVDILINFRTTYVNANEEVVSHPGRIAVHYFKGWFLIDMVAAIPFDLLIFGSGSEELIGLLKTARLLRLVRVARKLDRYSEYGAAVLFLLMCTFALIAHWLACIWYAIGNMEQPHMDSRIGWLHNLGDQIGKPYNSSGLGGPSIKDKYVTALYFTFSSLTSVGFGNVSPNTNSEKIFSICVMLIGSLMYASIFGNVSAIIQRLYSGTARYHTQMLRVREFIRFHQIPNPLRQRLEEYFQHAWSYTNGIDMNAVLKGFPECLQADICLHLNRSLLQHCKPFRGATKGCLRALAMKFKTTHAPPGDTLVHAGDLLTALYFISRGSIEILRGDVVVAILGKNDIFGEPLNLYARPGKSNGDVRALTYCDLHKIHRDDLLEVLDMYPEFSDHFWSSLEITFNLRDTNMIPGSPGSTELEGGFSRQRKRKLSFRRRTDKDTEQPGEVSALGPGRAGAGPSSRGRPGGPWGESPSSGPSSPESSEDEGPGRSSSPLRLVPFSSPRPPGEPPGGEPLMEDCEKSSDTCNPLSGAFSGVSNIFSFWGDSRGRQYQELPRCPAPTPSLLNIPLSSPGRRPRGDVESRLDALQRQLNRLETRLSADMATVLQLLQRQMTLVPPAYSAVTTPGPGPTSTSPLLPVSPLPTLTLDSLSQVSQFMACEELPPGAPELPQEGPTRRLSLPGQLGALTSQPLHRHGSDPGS
# test.name: primary screen, population patch clamp on CHO cells stably expressing hERG; higher = less effect of the substance
Among all 310,000 compounds or so, about 14,000 (4.5%) showed an effect of 50% or more. Effects have a minus sign here. Shown is part of a subset that was picked to be rich in strong results.
Provide the reading as a plain figure in %.

Example results:
CCOC(=O)OC(C)OC1=C(C(=O)Nc2ccccn2)N(C)S(=O)(=O)c2ccccc21 (stereo not drawn)    16.1
O=C(Nc1ccccc1Oc1ccccc1)C1CC1    12.2

Measured hERG current change (%, negative = inhibition) at 10uM (human ether-à-go-go-related gene (hERG) potassium channel (human, UniProt Q12809)), entry CN(CC(=O)N1CCc2ccccc21)S(=O)(=O)c1cccs1 : -22

Measured hERG current change (%, negative = inhibition) at 10uM (human ether-à-go-go-related gene (hERG) potassium channel (human, UniProt Q12809)), entry COc1ccc(N2CCN(C(C)C(=O)N3CCc4ccccc43)CC2)cc1 (stereo not drawn) : -17.7

Measured hERG current change (%, negative = inhibition) at 10uM (human ether-à-go-go-related gene (hERG) potassium channel (human, UniProt Q12809)), entry CC1CCCN(CC(=O)Nc2ccc(S(=O)(=O)N3CCCC3)cc2)C1 (stereo not drawn) : 1.82

Measured hERG current change (%, negative = inhibition) at 10uM (human ether-à-go-go-related gene (hERG) potassium channel (human, UniProt Q12809)), entry CCOc1ccc(N=Cc2c(O)c3ccccc3oc2=O)cc1 : 3.29

Measured hERG current change (%, negative = inhibition) at 10uM (human ether-à-go-go-related gene (hERG) potassium channel (human, UniProt Q12809)), entry COc1ccccc1Nc1nnc(SCC(=O)N2CCCC2=O)s1 : -11.4

Measured hERG current change (%, negative = inhibition) at 10uM (human ether-à-go-go-related gene (hERG) potassium channel (human, UniProt Q12809)), entry Cc1cc(C)nc(SCC(=O)Nc2ccc(S(=O)(=O)N3CCCCC3)cc2)n1 : -61.3

Measured hERG current change (%, negative = inhibition) at 10uM (human ether-à-go-go-related gene (hERG) potassium channel (human, UniProt Q12809)), entry O=C(Nc1ccc(Br)c(Br)c1)C1CCCO1 (stereo not drawn) : 3.39

====

# assay.system: human ether-à-go-go-related gene (hERG) potassium channel (human, UniProt Q12809);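 further: peak tail current of the secondary pulse compared with the same well before compound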
# test.name: primary screen, population patch clamp on CHO cells stably expressing hERG; higher = less effect of the substance
In all, about 310,000 compounds went through this assay and about 14,000 (4.5%) showed an effect of 50% or more. Effects have a minus sign here. The list comes from a sample in which strong results are over-represented; it also holds close analogues and randomly drawn compounds.
metric: hERG current change (%, negative = inhibition) at 10uM (%)
Provide the reading as a plain figure in %.

COc1cccc(NS(=O)(=O)c2c(C)n(C)c(=O)n(C)c2=O)c1    -19.9
C=CCn1c(=O)c(C(=O)NC(C)c2ccccc2)c(O)c2ccccc21 (centres unmarked)    18.3
Cc1nn(C)c(NC(=O)c2ccc(Cl)cc2Cl)c1Br    -11.4
O=C(O)C1=C[C@@H](c2ccc(Br)cc2)C[C@@H](OCc2ccc(CO)cc2)O1    18.2
COc1ccc(CCN(C)Cc2ccc(F)cc2F)cc1OC    -0.788

hERG current change (%, negative = inhibition) at 10uM in this record for COc1cc(CN(CCN(C)C)Cc2ccccc2)ccc1OCc1ccccc1.O=C(O)C(=O)O : -31

hERG current change (%, negative = inhibition) at 10uM in this record for Clc1ccccc1Cn1nnc2c(Nc3ccccc3)ncnc21 : -0.775

hERG current change (%, negative = inhibition) at 10uM in this record for COC(=O)C1CN(C(=O)COc2cccc(C)c2C)c2ccccc2O1 (centres unmarked) : -6.63

hERG current change (%, negative = inhibition) at 10uM in this record for O=S1(=O)N=C(N(CCO)/N=C/c2ccc(Br)cc2)c2ccccc21 : 15

hERG current change (%, negative = inhibition) at 10uM in this record for COCCn1c(Cc2ccccc2)nnc1SCC(=O)N1CCCCC1C (centres unmarked) : 7.49

hERG current change (%, negative = inhibition) at 10uM in this record for CN(Cc1ccccc1)C(=O)c1ccc(NC(=O)C2=CSCCO2)cc1 : -0.926
